- Tested On: CYP1A1 (Homo sapiens, UniProt P04798)
- Construct: expressed in transfected cells
- Sequence (P04798 whole entry): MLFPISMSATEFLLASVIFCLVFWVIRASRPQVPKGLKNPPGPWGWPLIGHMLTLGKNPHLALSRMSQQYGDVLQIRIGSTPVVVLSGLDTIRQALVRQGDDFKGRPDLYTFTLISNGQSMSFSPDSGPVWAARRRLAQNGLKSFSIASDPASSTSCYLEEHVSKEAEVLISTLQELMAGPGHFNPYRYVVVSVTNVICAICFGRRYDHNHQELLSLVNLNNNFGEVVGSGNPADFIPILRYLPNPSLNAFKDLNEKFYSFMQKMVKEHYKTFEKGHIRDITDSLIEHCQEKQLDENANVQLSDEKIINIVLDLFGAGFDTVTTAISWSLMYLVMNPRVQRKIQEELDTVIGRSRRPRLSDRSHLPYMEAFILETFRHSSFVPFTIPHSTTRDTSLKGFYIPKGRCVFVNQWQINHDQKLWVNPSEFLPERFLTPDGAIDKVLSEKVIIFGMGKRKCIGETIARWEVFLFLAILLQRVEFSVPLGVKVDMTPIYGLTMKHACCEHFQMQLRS
- Assay Method Text: EROD assay in CYP1A1 counter-screen cell line
- Type: cell-based
- Condition Summary: Table 1; read-out: CYP1A1 IC50
Reported Endpoint: IC50 (µM)
Report only the number, with the unit µM understood.

Task item: Consider the molecule shown here: N#CCOc1ccc(-c2nc(OCC#N)c3ccccc3n2)cc1 What is its recorded IC50?
Reply: 1.4

Task item: Consider the molecule shown here: N#CCOc1ccc(-c2nc(OCCCNC(=O)OCCOCCOCCOC(=O)NC34CC5CC(CC(C5)C3)C4)c3ccccc3n2)cc1 What is its recorded IC50?
Reply: 3.6
